Test system: Vero
Assay: Cytotoxicity against african green monkey Vero cells
Assay type: cell-based
Conditions: Chlorocebus sabaeus
Let's look at some compounds and their measured IC50.
reported property: IC50

[
  {
    "smiles string": "C=C[C@@]1(C)C=C2CC[C@H]3C(C)(C)C(=O)C[C@@H](O)[C@@]3(C)[C@H]2C[C@H]1O",
    "reported property": "IC50",
    "result": "105 µg/mL"
  },
  {
    "smiles string": "CC(C)CCC[C@@H](C)[C@H]1CC[C@@]2(C)[C@@H]3CC[C@H]4C(C)(C)[C@@H](O)CC[C@@]45C[C@@]35CC[C@]12C",
    "reported property": "IC50",
    "result": "102 µg/mL"
  },
  {
    "smiles string": "C=C(C)[C@@H]1CC[C@]2(C)CC[C@]3(C)[C@H](CC[C@@H]4[C@@]5(C)CC[C@@H](O)C(C)(C)[C@@H]5CC[C@]43C)[C@@H]12",
    "reported property": "IC50",
    "result": "127 µg/mL"
  },
  {
    "smiles string": "CC1(C)CC[C@]2(C)CC[C@]3(C)C(=CC[C@@H]4[C@@]5(C)CC[C@@H](O)C(C)(C)[C@@H]5CC[C@]43C)[C@@H]2C1",
    "reported property": "IC50",
    "result": "127 µg/mL"
  }
]

* * *

Tested on: Mycobacterium tuberculosis
Experiment: Antitubercular activity against Mycobacterium tuberculosis H37Rv by microplate alamar blue assay
Assay type: functional

[
  {
    "smiles string": "C=C(C)[C@@H]1CC[C@]2(C)CC[C@]3(C)[C@H](CC[C@@H]4[C@@]5(C)CC[C@H](O)C(C)(C)[C@@H]5CC[C@]43C)[C@@H]12",
    "MIC": "> 128 µg/mL"
  },
  {
    "smiles string": "C[C@H]1[C@H](C)CC[C@]2(C)CC[C@]3(C)C(=CC[C@@H]4[C@@]5(C)CC[C@@H](O)C(C)(C)[C@@H]5CC[C@]43C)[C@H]12",
    "MIC": "> 128 µg/mL"
  },
  {
    "smiles string": "CCCCCCCCCCCC(=O)O[C@H]1CC[C@]23C[C@]24CC[C@]2(C)[C@@H]([C@H](C)C/C=C/C(C)(C)O)CC[C@@]2(C)[C@@H]4CC[C@H]3C1(C)C",
    "MIC": "> 128 µg/mL"
  }
]

These entries and their values trace back to ChEMBL document CHEMBL1151170.
